Assay: Cholera quorum inducers, light production in absence of autoinducers, BH1578 strain, dry powder dose (AID 652239)
Conditions: V. cholerae BH1578 lux luminescence induction, 6 h; at 100 µM (top of the series)
Property: activation; scope: individual compounds
The response must be a number in % with no trailing unit.

Here are 5 compounds together with their reported answers.
| compound-structure | unit-text | result-value |
| --- | --- | --- |
| Cc1ccc2cc3c(NC(=O)c4ccccn4)nn(C)c3nc2c1 | % | -0.001 |
| Cn1ccc(NC(=O)c2ccco2)n1 | % | 0.036 |
| COc1ccc(S(=O)(=O)Nc2nnc(-c3ccc4c(c3)OCCO4)o2)cc1 | % | 0.003 |
| CCn1nnnc1N | % | -0.013 |
| CC(C)(C)OC(=O)N1CCC(C(=O)Nc2nnc(-c3ccc4c(c3)OCCO4)o2)CC1 | % | 0.011 |

Query: I would be grateful if you could share the reported activation for O=S(=O)(Nc1nnc(-c2ccc3c(c2)OCCO3)o1)c1ccc(Cl)cc1 .
Response: -0.004

Source listed as PubChem BioAssay AID652239.
